experiment: Selectivity index, ratio of CC50 for human MT4 cells to EC50 for HIV1 3B infected in human MT4 cells; settings: MT4 cells
So I've got a bunch of compounds here, and I need their selectivity ratio values.
Answers are plain numbers.

{"smiles str": "Cc1cc(C#N)cc(C)c1Oc1ccnc(Nc2ccc(CN3CCOCC3)cc2)n1", "selectivity ratio": 2040}
{"smiles str": "Cc1cc(C#N)cc(C)c1Oc1ccnc(Nc2ccc(CN3CCC(NS(C)(=O)=O)CC3)cc2)n1", "selectivity ratio": 331}
{"smiles str": "Cc1cc(/C=C/C#N)cc(C)c1Oc1ccnc(Nc2ccc(CN3CCC(NC(=O)OC(C)(C)C)CC3)cc2)n1", "selectivity ratio": 138}

Attention now shifts to the item below.
[ask] Which selectivity ratio value is on record for Cc1cc(C#N)cc(C)c1Oc1ccnc(Nc2ccc(CN3CCN(S(C)(=O)=O)CC3)cc2)n1 ?
[reply] 475
